Values from patent US20110053897A1

# measured_on: Syk kinase (Homo sapiens)
# Construct: purchased
# protocol_summary: Syk kinase inhibition, Caliper LabChip off-chip mobility-shift kinase assay
# Type: biochemical
# assay_context: read-out: Syk Enzyme IC50
measure: IC50
Please append the unit to your numeric answer.

Illustrative cases are given below, each with its answer.
molecule	measure	measured_result
CCn1ccc2cc(Nc3ncccn3)nc(NC[C@@H]3CC[C@@H](O)C3)c2c1=O	IC50	46.2 nM
CCN1CCC[C@@H]1CNc1nc(Nc2cc(C)ccn2)cc2cc[nH]c(=O)c12	IC50	5560 nM
COc1cncc(-c2cc3cc[nH]c(=O)c3c(Nc3ccc(C4CCN(CCC#N)C4)cc3)n2)n1 (centres unmarked)	IC50	30 nM
Cc1ccc(Nc2cc3cc[nH]c(=O)c3c(Nc3ccc(C4CCN(C5CC5)CC4)c(C)c3)n2)nc1	IC50	1590 nM
COc1cncc(-c2cc3cc[nH]c(=O)c3c(Nc3ccc(C4CCC(N(C)C)CC4)cc3)n2)n1 (centres unmarked)	IC50	31 nM

Problem: Would you mind telling me what IC50 value was observed for CC(C)Nc1nc(Nc2cnccn2)cc2ccn(CCO)c(=O)c12 ?
Solution: 52 nM

Problem: Please look up its IC50: CCn1ccc2cc(Nc3cc(C)ccn3)nc(N[C@H]3CC[C@@H](O)C3)c2c1=O
Solution: 47 nM

Problem: Look up IC50: COc1cncc(-c2cc3cc[nH]c(=O)c3c(Nc3ccc(CCN4CCC(F)(F)CC4)cc3)n2)n1
Solution: 638 nM

Problem: Requested field: IC50. Item: Cn1ccc2cc(Nc3cnccn3)nc(NC3CCC3)c2c1=O
Solution: 16 nM

Problem: IC50 lookup needed for CCOC(=O)/C=C/c1cc2cc[nH]c(=O)c2c(Nc2ccc(N3CCOCC3)cc2)n1 , thanks.
Solution: 332 nM

Problem: Recorded IC50 of CC(C)Nc1nc(Nc2cc(-c3cnn(C)c3)ccn2)cc2cc[nH]c(=O)c12 , please.
Solution: 87.9 nM

Problem: Entry under review: COC[C@H](C)Nc1nc(-c2cnc(N)nc2)cc2cc[nH]c(=O)c12 . Reported IC50?
Solution: 125 nM

---

# measured_on: Syk kinase (Homo sapiens, UniProt P43405)
# Construct: purchased
# protocol_summary: Syk kinase inhibition, Caliper LabChip off-chip mobility-shift kinase assay
# Format: biochemical
# assay_context: Caliper LabChip assay; read-out: Syk Enzyme IC50
measure: pIC50
Reminder that pIC50 is minus the log10 of a molar concentration.

compound	measured_on	pIC50
CC(C)(C)Nc1nc(Nc2cc(CNC3COC3)ccn2)cc2ccn(CCO)c(=O)c12 [compound 605]	Syk kinase (Homo sapiens, UniProt P43405)	6.67

Problem: Data request, read-out pIC50, for Cc1ccnc(Nc2cc3ccn(CCO)c(=O)c3c(N)n2)c1 [compound 813]
Solution: 5.98

Problem: I'd like to know its pIC50. The compound in question is CC(C)Nc1nc(Nc2cc(-c3cccnc3)ccn2)cc2cc[nH]c(=O)c12 [compound 1045]
Solution: 6.61

Problem: Requested field: pIC50. Item: CC(C)(C)Nc1nc(Nc2nccs2)cc2ccn(CCO)c(=O)c12 [compound 692]
Solution: 5.99

Problem: Entry CC(C)(C)Nc1nc(Nc2cc(/C(N)=N/O)ccn2)cc2ccn(CCO)c(=O)c12 [compound 869] has what pIC50?
Solution: 8.22

Problem: Fill in the blank: the reported pIC50 of CC(C)(C)Nc1nc(Nc2cc(C(=O)NCCc3c[nH]cn3)ccn2)cc2ccn(CCO)c(=O)c12 [compound 687] is ____.
Solution: 6.61

Problem: Please look up its pIC50: CC(C)(C)Nc1nc(Nc2cc(OCCO)ccn2)cc2ccn(CCO)c(=O)c12 [compound 866]
Solution: 7.96

Problem: Consider the compound CC(C)(C)Nc1nc(Nc2ccc(C#N)cn2)cc2ccn(CCO)c(=O)c12 [compound 697] and give its measured pIC50.
Solution: 6.68

Problem: Consider the compound shown here: O=c1c2c(N[C@H]3CC[C@@H](O)CC3)nc(Nc3cnccn3)cc2ccn1CC(F)F [compound 1022] What is its recorded pIC50?
Solution: 7.96

---

# reported IC50; entries follow
# measured_on: Syk kinase (Homo sapiens, UniProt P43405)
# Construct: purchased
# protocol_summary: Syk kinase inhibition, Caliper LabChip off-chip mobility-shift kinase assay
# Format: biochemical
# assay_context: Caliper LabChip assay; read-out: Syk Enzyme IC50
Could you give me the number in nM? Just the number is fine.

Below: 10 compounds and their reported IC50.
compound	IC50 / nM
CCn1ccc2cc(Nc3cnccn3)nc(NC3CCCC(O)C3)c2c1=O (centres unmarked)	26
CC(C)(C)Nc1nc(Nc2cc(-c3cn[nH]c3)ncn2)cc2ccn(CCO)c(=O)c12	285
CC(C)(C)Nc1nc(Nc2cc(/C=C/CCO)ncn2)cc2ccn(CCO)c(=O)c12	60
CC(C(N)=O)n1ccc2cc(-c3cnc(N)nc3)nc(NC(C)(C)C)c2c1=O (centres unmarked)	5
CC1(Nc2nc(-c3cnc(N)nc3)cc3ccn(CC4(CO)COC4)c(=O)c23)CCC1	25
CCn1ccc2cc(Nc3cnccn3)nc(NC(C)(CO)CO)c2c1=O	153
CCC(C)(C)Nc1nc(-c2cnc(N)nc2)cc2ccn(CCO)c(=O)c12	21
CC(C)(C)Nc1nc(Nc2cc(-c3ccno3)ccn2)cc2ccn(CCO)c(=O)c12	151
CCn1ccc2cc(-c3cnc(N)nc3)nc(N[C@H]3CC[C@H](O)CC3)c2c1=O	46
CC(C)n1ccc2cc(Nc3cnccn3)nc(N[C@@H](C)CO)c2c1=O	17

Problem: Bench note: what IC50 did CC(C)(C)Nc1nc(Nc2cnccn2)cc2ccn(CC(=O)N3CCOCC3)c(=O)c12 show?
Solution: 238

Problem: Query: IC50; subject: C=Cc1ccnc(Nc2cc3ccn(CCO)c(=O)c3c(NC(C)(C)C)n2)c1
Solution: 46

Problem: Tell me the measured IC50 of CC(C)(C)Nc1nc(Nc2cc(C(F)F)ccn2)cc2ccn(CCO)c(=O)c12 , please.
Solution: 9

Problem: I'd like to know its IC50. The compound in question is C[C@@H](CO)Nc1nc(Nc2cnccn2)cc2ccn(CCC#N)c(=O)c12
Solution: 27

Problem: // returns reported IC50 for input CC(C)(C)Nc1nc(Nc2cc(OC3CCNCC3)ncn2)cc2ccn(CCO)c(=O)c12
Solution: 5

Problem: Given CCC(O)c1ccnc(Nc2cc3ccn(CCO)c(=O)c3c(NC(C)(C)C)n2)c1 (centres unmarked) , state its recorded IC50.
Solution: 37

---

# measured_on: Syk kinase (Homo sapiens, UniProt P43405)
# Construct: purchased
# protocol_summary: Syk kinase inhibition, Caliper LabChip off-chip mobility-shift kinase assay
# Type: biochemical
# assay_context: read-out: Syk Enzyme IC50
measure: IC50 (µM)
Express it in µM; write the number only.

Some solved entries appear below for comparison.
molecule	IC50 / µM
Cc1cc(Nc2nc(CCO)cc3cc[nH]c(=O)c23)ccc1C1CCN(C2CC2)CC1 [compound 246]	0.041
Cn1ccc2cc(Nc3cnccn3)nc(NCCCO)c2c1=O [compound 474]	0.14
Cc1ccnc(Nc2cc3ccn(C)c(=O)c3c(N[C@H]3CCOC3)n2)c1 [compound 325]	0.057
Cc1ccnc(Nc2cc3cc[nH]c(=O)c3c(NC[C@@H]3CCCO3)n2)c1 [compound 505]	0.063

Problem: Value lookup for IC50; key = CCN1CCC[C@H]1CNc1nc(Nc2cc(C)ccn2)cc2cc[nH]c(=O)c12 [compound 590]
Solution: 3.5

Problem: // lookup IC50 for CCn1ccc2cc(Nc3cc(C)ccn3)nc(N[C@H]3CCC[C@H]3O)c2c1=O (racemic) [compound 360]
Solution: 0.067

Problem: State the recorded IC50 for this entry: C[C@@H](CO)Nc1nc(Nc2cnccn2)cc2ccn(CCO)c(=O)c12 [compound 373]
Solution: 0.027

Problem: For CCOCCc1cc2cc[nH]c(=O)c2c(Nc2ccc(C3CCN(C4CC4)CC3)c(C)c2)n1 [compound 227] , what is its reported IC50?
Solution: 0.398

Problem: Given Nc1ncc(-c2cc3cc[nH]c(=O)c3c(N[C@@H]3CCC[C@H]3O)n2)cn1 [compound 184] , state its recorded IC50.
Solution: 0.059

Problem: If you can, please state the reported IC50 value of CCc1ccnc(Nc2cc3cc[nH]c(=O)c3c(Nc3ccc(CCN4CCN(CC)CC4)cc3)n2)c1 [compound 546] .
Solution: 0.088

Problem: Which IC50 value is on record for CC(C)Nc1nc(Nc2cc(C(=O)O)ccn2)cc2cc[nH]c(=O)c12 [compound 587] ?
Solution: 0.226

Problem: Quick check: IC50 of CCCc1cc2cc[nH]c(=O)c2c(Nc2ccc(N3CCO[C@H](C)C3)c(C)c2)n1 [compound 225] ?
Solution: 2.3

Problem: Look up IC50: COc1ccc(Nc2nc(Nc3cc(C)ccn3)cc3ccn(C)c(=O)c23)cc1 [compound 364]
Solution: 0.228

Problem: Entry O=c1[nH]ccc2cc(Nc3ccccn3)nc(N3CCCC3)c12 [compound 279] : reported IC50 = ?
Solution: 1.42

Problem: So what's the measured IC50 for this one? CCN1CCN(Cc2n[nH]c3cc(Nc4nc(-c5cncc(C(=O)N6CCOCC6)c5)cc5cc[nH]c(=O)c45)ccc23)CC1 [compound 207]
Solution: 0.089

Problem: Give the measured IC50 of CC(C)Nc1nc(-c2cnc(N)nc2)cc2cc[nH]c(=O)c12 [compound 35] .
Solution: 0.086

Problem: Which value of IC50 has been reported for Cn1ccc2cc(Nc3cnccn3)nc(Nc3ccc(C4CCNCC4)cc3)c2c1=O [compound 341] in the records?
Solution: 0.112
